Biological target: T1, hHER3 ECD (human HER3 extracellular domain) (human, UniProt P21860 20-643)
T1 construct: also called recombinant HER3-ECD
Assay: ELISA, coated hHER3-ECD
Below, each of the binders is paired with its reported pEC50 value.
To interpret pEC50, take it as minus log10 of a concentration measured in moles per litre.

// field: pEC50; key: 34C07 (VHH, c-myc, His6-tagged form as expressed; also called 34C7; HER3MS34C07) VHH: EVQLVESGGGLVQPGGSLGLSCVASGSIFRINAMAWYRQAPGKQRELVAEITAGGSTNYADSVKGRFTISVDNAWNTLYLQMNSLKVEDTAVYYCNLDHYTTWDRRSAYWGQGTQVTVSS ; value = 9.34

// field: pEC50; key: 18F05 (VHH, also called 18F5) VHH: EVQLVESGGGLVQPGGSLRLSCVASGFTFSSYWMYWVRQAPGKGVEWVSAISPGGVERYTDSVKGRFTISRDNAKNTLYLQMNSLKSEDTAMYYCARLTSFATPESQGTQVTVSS ; value = 9.54

// field: pEC50; key: 04C07 (VHH, also called HER3MS04C07; HER3MS004C07) VHH: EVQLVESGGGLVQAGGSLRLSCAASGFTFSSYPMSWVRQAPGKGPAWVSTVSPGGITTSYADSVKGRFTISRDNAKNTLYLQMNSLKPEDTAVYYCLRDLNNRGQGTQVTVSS ; value = 9.07

// field: pEC50; key: 34A04 (VHH) VHH: EVQLVESGGGLVQAGGSLRLSCAASGFTFDDYTIGWFRQAPGKEREEISCISNNDGSTYYTNSVKGRFTISSDNAKNTVYLQMNSLKPEDTAVYYCAASPHGCWYDLIPLQADFGSWGQGTQVTVSS ; value = 9.24

// field: pEC50; key: 21F06 (VHH, c-myc, His6-tagged form as expressed; also called 21F6; HER3MS21F06) VHH: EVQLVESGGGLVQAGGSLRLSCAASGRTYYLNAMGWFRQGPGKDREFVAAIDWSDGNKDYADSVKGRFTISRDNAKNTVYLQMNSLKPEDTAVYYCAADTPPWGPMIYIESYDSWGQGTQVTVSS ; value = 9.52

Next binder, please.
// field: pEC50; key: 05A09 (VHH) VHH: EVQLVESGGGLVQAGGSLRLSCAASGFTFDDYAIGWFRQAPGKEREGVSCISSSDGSTVYADSVKGRFTISSDNAKNTVYLQMNSLKPEDTAVYYCAAERRRGYSDLCRFYYGMDYWGKGTQVTVSS ; value = 8.84

Each recorded value in this set is attributed to patent US20130136748A1.
